# SYSTEM: GORASP1, Q9BQQ3
# Sequence (Q9BQQ3 1-208): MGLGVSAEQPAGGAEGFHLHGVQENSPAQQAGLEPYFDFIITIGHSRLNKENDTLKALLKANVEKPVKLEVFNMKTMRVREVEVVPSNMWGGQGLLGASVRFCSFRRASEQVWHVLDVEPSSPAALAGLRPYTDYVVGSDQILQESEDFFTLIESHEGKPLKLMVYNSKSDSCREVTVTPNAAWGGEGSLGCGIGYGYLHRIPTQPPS
# EXPERIMENTAL PROTOCOL: holdup assay
# Set-up: key: below the threshold = too weak to quantify, mostly under pKd 3.1 to 4
# SETUP CONDITIONS: plain residues with an end cap or a label only (N-terminal biotin on a linker: ado-ado)
EXPERIMENTAL READOUT: pKd
One number for each entry.

Example entries begin here.
BINDER: SLNANEVEWF [RNF130, Q86XS8]
pKd: 4.08

BINDER: ARESQKVSHV [FAM110B, Q8TC76]
pKd: 3.8

BINDER: EDLEDEWEVI [TECPR2, O15040]
pKd: 4.12

Next up:
Query: Request the reported pKd associated with EDGESWEYQI [TRPV6, Q9H1D0]
Response: 4.63

Taken from paper PMC9482650.
